experimental-readout: melting point

molecule: O=C(NCCc1ccccn1)c1ccccc1-c1ccccc1CNS(=O)(=O)c1ccccc1
result: 131 °C
//
molecule: COC[C@H]1CN(C2=Nc3ccccc3Nc3sc(C)cc32)CCN1C
result: 76 to 80 °C
//
molecule: Cn1c(=O)c2[nH]c(C3CCSC3)nc2n(C)c1=O (stereo unspecified)
result: 217 to 219 °C
//
molecule: CCOC(=O)c1nc(-c2ccc(N3CCOCC3)cc2)[nH]c1-c1ccc(Cl)cc1
result: 215 °C
//
molecule: CC1SC(=O)NN=C1c1ccc2c(c1)C(=NNC(=O)c1cccs1)C(=O)N2 (stereo unspecified)
result: > 300 °C
//
molecule: COc1cccc(C(=O)CC(=O)c2cc(NC(C)=O)ccc2O)c1
result: 72 to 73 °C
//
molecule: Nc1nc(-c2ccc(Cl)cc2)c(CCC(=O)O)s1
result: 116 to 118 °C
//
molecule: COc1ccc(Nc2ccc(Nc3ncnc4cc(-c5ccccc5)sc34)cc2)cc1OC
result: 160 to 161 °C
//
molecule: COC(=O)c1ccccc1Cn1ccc(OCc2ccc(F)cc2)c(Br)c1=O
result: 161 to 165 °C
//
molecule: CCCn1cnc2c1c(=O)n(CCCCCCO)c(=O)n2C
result: 68 to 70 °C
//
molecule: CCCOCCOc1ccc(Oc2ccc3c(c2)C=C(C(=O)Nc2ccc(CN(C)C4CCOCC4)cc2)CCS3(=O)=O)cc1OCC
result: 159 to 160 °C
//
molecule: Nc1ccnc(SCc2ccccn2)n1
result: 133 to 134 °C
//
molecule: C#CC1(O)CCC2C3CCC4CC=CCC4C3CCC21C (stereo unspecified)
result: 108 to 109 °C
//
molecule: CC(C)(C)C1CC(=Cc2ccccc2)C(=O)C(=Cc2ccccc2)C1 (stereo unspecified)
result: 137 to 139 °C
//
molecule: CSc1sc(-c2ncn(C)n2)c2c1C(=O)CC(C)(C)C2
result: 146 to 148 °C
//
molecule: CCCCCCCCCCCCCC(=O)O[C@H](CCCCCCCCCCC)CC(=O)O
result: 28 to 29 °C

* * *

Reported melting point values follow for various compounds

chemical-structure: O=C(Cn1ncc(-c2ccccc2)c1-c1ccccc1)NCCN1CCCCC1
melting point: 95 to 97 °C

chemical-structure: CNc1nc(N)nc2c1nnn2Cc1ccccc1F
melting point: 252 to 254 °C

chemical-structure: CCOC(=O)c1ncn2c1CN=C(c1ccccc1Cl)c1cc(Cl)ccc1-2
melting point: 215 to 220 °C

* * *

Reported melting point values follow for various molecules

molecule: CC1=C(C(=O)OCCN(C)Cc2ccc(Cl)cc2)C(c2cccc([N+](=O)[O-])c2)C(C(=O)OCC2CC2)=C(C)N1 (centres undefined)
melting point: 115 to 116 °C
--
molecule: C#CCCn1nnc2cc3c(=O)n(C(C)Cn4ncnn4)nnc3cc2c1=O (centres undefined)
melting point: 185 to 188 °C
--
molecule: COc1ccc(CC(=O)NC(NC(=NC#N)c2cccc3ncccc23)C(C)(C)C)cc1OC (centres undefined)
melting point: 203 to 205 °C
--
molecule: CC1CC(=O)NN=C1c1ccc(N2CCNCC2)c(N)c1 (centres undefined)
melting point: 244 to 245 °C
--
molecule: COC(=O)c1cccc(-c2nc(COc3ccc(C=O)cc3)c(C)o2)c1
melting point: 103 to 104 °C
--
molecule: CCCC(=O)c1ccc(=O)[nH]c1CCC
melting point: 86 to 88 °C
--
molecule: Cc1cc(Cl)cc(Cl)c1OC(=O)c1ccc(CCl)cc1
melting point: 74 to 75 °C
--
molecule: O=c1cc(CO)oc2ccccc12
melting point: 165 to 167 °C
--
molecule: CC(C)C[C@H](NC(=O)OCC1CCCCC1)C(=O)N[C@@H](C(C)C)[C@@H](O)c1c(-c2ccc(F)cc2)c1=O
melting point: 86 to 90 °C
--
molecule: Nc1nc(N)c2c(n1)CCC(Cc1cc(Cl)cc(Cl)c1)C2 (centres undefined)
melting point: > 200 °C
--
molecule: CC(=O)Oc1ccc(CCc2cc(OC(C)=O)cc(OC(C)=O)c2)cc1
melting point: 52 to 52.5 °C
--
molecule: COC(=O)c1ccc(N=Cc2ccc(OC)c(C34CC5CC(CC(C5)C3)C4)c2)cc1
melting point: 180 to 182 °C
--
molecule: CNC(=NC#N)NCCSCc1cccc(NC(N)=NCC(F)(F)F)n1
melting point: 137 to 140 °C
--
molecule: CC(C)(C)c1ccc(NC(=O)N2CCCC3(CC2)CC(c2ccccc2)=NO3)cc1 (centres undefined)
melting point: 137 to 142 °C

* * *

compound: COc1ccc(C2(C)C(=O)c3c(Cl)cc(Cl)cc3N(Cc3ccccc3)C2=O)cc1 (stereo not given)
melting point: 159 to 160 °C

compound: O=C(NCC1CCN(C(c2ccccc2)c2ccccc2)CC1)c1cc(F)ccc1[N+](=O)[O-]
melting point: 164 to 166 °C

compound: CC(=O)CN1CCc2c(c(=O)oc3cc(C)c([N+](=O)[O-])cc23)C1
melting point: 166 to 168 °C

compound: O=C1CN(c2ccc(Cl)cc2)C(=S)N1c1ccc(Cc2ccccc2)cc1
melting point: 153 °C

compound: COc1cccc([C@H]2O[C@H](CC(=O)Nc3c(C)c(C)c4oc(C(=O)O)cc4c3C)C(=O)N(CC(C)(C)CO)c3ccc(Cl)cc32)c1OC
melting point: 246 to 248 °C

compound: Cc1ccc(C2(O)C(c3ccccc3)SC3=NCCCCN32)s1 (stereo not given)
melting point: 70 to 90 °C

compound: NC(=S)c1cc(Oc2ccc(C(F)(F)F)cc2Cl)ccc1[N+](=O)[O-]
melting point: 152 °C

compound: Cc1c(C=CC=O)c2c(c(C)c1OCc1ccccc1)CCC(C)(C)O2
melting point: 89 to 99.5 °C

compound: C[C@H]1CC[C@H]2C(C)(C)C(=NN3CCOCC3)CC[C@]23Oc2c(c(O)cc4c2CNC4=O)C[C@]13C
melting point: 202 to 205 °C

compound: CC(c1ccc(F)cc1)n1nc(-c2ccc(F)cc2)c(-c2ccc(S(C)(=O)=O)cc2)cc1=O (stereo not given)
melting point: 185 to 186 °C

compound: CCCn1c(=O)c2c(nc(/C=C/c3ccc(OC(=O)c4ccccc4)c(OC(=O)c4ccccc4)c3)n2C)n(CCC)c1=O
melting point: 231 °C

compound: CC(CCCO)C1CCC2C3C(O)CC4CC(O)CCC4(C)C3CC(O)C12C (stereo not given)
melting point: 226 to 227 °C

compound: CC(C)(C)c1ccc(C(O)(c2ccccc2)C2CCN(CCCC(O)c3ccccc3)CC2)cc1 (stereo not given)
melting point: 161 to 163 °C

compound: COC1=C(OC)C(=O)C(CCC(=O)N[C@@H](Cc2ccc(O)cc2)C(=O)O)=C(C)C1=O
melting point: 170 °C

compound: COC(=O)C(CNC(C)=O)c1cccc2ccc(OC)cc12 (stereo not given)
melting point: 118 to 120 °C

compound: CCC(C)CNC(=O)C(CC(O)C(CC(C)C)NC(=O)C(Cc1cscn1)NC(=O)C(Cc1cccc2ccccc12)NC(=O)OC(C)(C)C)C(C)(C)O (mixture of isomers)
melting point: 90 to 92 °C

compound: O=C1CCC(c2ccc(NC(=O)CCN3CCC(c4ccccc4)CC3)cc2)=NN1
melting point: 238 to 240 °C

compound: O=C(N[C@H](Cc1ccc(F)cc1)[C@@H](O)c1ccc(F)cc1)C1CCCCC1 (racemic)
melting point: 203 to 204 °C

compound: Cc1cc(O)c(Oc2ccccc2C#N)cc1Br
melting point: 99 to 101 °C

compound: Fc1cccc(F)c1Cn1nnc2c(Cl)nccc21
melting point: 133 to 139 °C

compound: CCCc1nc(C(O)C(C)(C)C)c(C(N)=O)n1Cc1ccc(-c2ccccc2C(=O)C(=O)O)cc1 (stereo not given)
melting point: 128 to 130 °C

compound: CC(C)(O)Cn1cnc2c(Cl)nc3ccccc3c21
melting point: 196 to 199 °C

compound: COc1ccc(CCNC(=O)CCc2ccc(Cl)cc2)cc1C
melting point: 142 to 144 °C

compound: CCC(CC)OC(=O)c1ccc(C(=O)NS(=O)(=O)c2ccc(C(=O)NCCc3ccccc3)cc2)cn1
melting point: 234 to 235 °C

compound: NP(N)(=O)NC(=O)c1cccnc1
melting point: 280 to 283 °C

compound: Nc1nc(N)nc(N(c2ccc(OCOc3ccc(N(c4nc(N)nc(N)n4)c4nc(N)nc(N)n4)cc3)cc2)c2nc(N)nc(N)n2)n1
melting point: > 300 °C

compound: CCOC(=O)C1CNc2cc(NS(C)(=O)=O)ccc2O1 (stereo not given)
melting point: 149 to 151 °C

compound: CCCC[C@H](NC(=O)[C@@H](NC(=O)OCc1ccccc1)[C@@H](C)CC)C(=O)CSCc1ccco1
melting point: 101 to 103 °C

compound: COCCOC(=O)OC[C@@H]1CC(c2ccc(-c3ccc(N4C[C@H](Cn5ccnn5)OC4=O)cc3F)cn2)=NO1
melting point: 112 °C

compound: O=C1CCCC(=O)c2cc(OCc3ccccc3)ccc2N1
melting point: 169 to 170 °C
